Test system: canine cardiac myofibrillar Ca++-dependent Mg++-ATPase
Test: Measurement of myofibrillar Ca++-dependent Mg++-ATPase activity on canine cardiac myofibrils
Type: biochemical
Conditions: 30 μM; pCa=5.47; pH 7.0, 21° C.
readout_label: max (percent change of maximal ATPase activity) (%)

[1] CC1SC(=O)NN=C1c1ccc2c(c1)C(=Cc1ccncc1)C(=O)N2 (centres unmarked)
[2] CC1SC(=O)NN=C1c1ccc2c(c1)C(=NNc1ccc(Cl)cc1)C(=O)N2 (centres unmarked)
[3] CC1SC(=O)NN=C1c1ccc2c(c1)C(=NNC(=O)c1ccccn1)C(=O)N2 (centres unmarked)
Query block: Hello, I need these entries ordered by max (percent change of maximal ATPase activity), highest reading first. Thanks! Returns: the labels arranged in the requested order.
Result block: 2, 3, 1
